Values were extracted from ChEMBL document CHEMBL3867430.

measurement.description: Antiproliferative activity against human PC3M cells after 48 hrs by SRB assay
Format: functional, cell-based
measurement.conditions: PC-3M
Reported IC50 values for a set of molecules

C=C(C)C1CC[C@H]2[C@@H]3CC[C@H]([C@H](C)CCC(=O)n4cccn4)[C@@]3(C)CC[C@@H]2[C@@]1(C)CCC(=O)n1cccn1 (stereo not given in full) ... > 80 µM
C=C(C)C1CC[C@H]2[C@@H]3CC[C@H]([C@H](C)CCC(=O)O)[C@@]3(C)CC[C@@H]2[C@@]1(C)CCC(=O)O (stereo not given in full) ... > 80 µM
C=C(C)C1CC[C@H]2[C@@H]3CC[C@H]([C@H](C)CCC(=O)N4CCN(c5ccccc5F)CC4)[C@@]3(C)CC[C@@H]2[C@@]1(C)CCC(=O)N1CCN(c2ccccc2F)CC1 (stereo not given in full) ... > 80 µM
C[C@H](CCC(=O)O)[C@H]1CC[C@H]2[C@@H]3C[C@H](O)[C@@H]4C[C@H](O)CC[C@]4(C)[C@H]3CC[C@]12C ... > 80 µM

Then there is this molecule:
Tell me the measured IC50 of C=C(C)C1CC[C@H]2[C@@H]3CC[C@H]([C@H](C)CCC(=O)Nc4ccc(F)cc4)[C@@]3(C)CC[C@@H]2[C@@]1(C)CCC(=O)Nc1ccc(F)cc1 (stereo not given in full) , please.
> 80 µM

----------
measurement.description: Antiproliferative activity against human ES2 cells after 48 hrs by SRB assay
Format: functional, cell-based
measurement.conditions: ES-2, 48 h
value.type: pIC50
Keep in mind that pIC50 stands for -log10 of concentration in molar terms.

The following molecules have reported results that may help.
C=C(C)C1CC[C@H]2[C@@H]3CC[C@H]([C@H](C)CCC(=O)N4CCCC4)[C@@]3(C)CC[C@@H]2[C@@]1(C)CCC(=O)N1CCCC1 (stereo not given in full) ... 5.03
C#CCNC(=O)CC[C@@H](C)[C@H]1CC[C@H]2[C@@H]3CCC(C(=C)C)[C@](C)(CCC(=O)NCC#C)[C@H]3CC[C@]12C (stereo not given in full) ... 5.51
C=C(C)C1CC[C@H]2[C@@H]3CC[C@H]([C@H](C)CCC(=O)N4CCOCC4)[C@@]3(C)CC[C@@H]2[C@@]1(C)CCC(=O)N1CCOCC1 (stereo not given in full) ... 4.53

Tell me the measured pIC50 of C=C(C)C1CC[C@H]2[C@@H]3CC[C@H]([C@H](C)CCC(=O)O)[C@@]3(C)CC[C@@H]2[C@@]1(C)CCC(=O)N1CCN(C)CC1 (stereo not given in full) , please.
4.27

Moving on to the next molecule: CC(C)C1CC[C@H]2[C@@H]3CC[C@H]([C@H](C)CCC(=O)N4CCN(C)CC4)[C@@]3(C)CC[C@@H]2[C@@]1(C)CCC(=O)N1CCN(C)CC1 (stereo not given in full)
5.09

----------
Reported IC50 values for a set of compounds
measurement.description: Antiproliferative activity against human PC3M cells after 48 hrs by SRB assay
Format: functional, cell-based
measurement.conditions: PC-3M

The following compounds have reported results that may help.
C=C(C)C1CC[C@H]2[C@@H]3CC[C@H]([C@H](C)CCC(=O)O)[C@@]3(C)CC[C@@H]2[C@@]1(C)CCC(=O)N1CCN(C)CC1 (stereo partly drawn) ... > 80 µM
C[C@H](CCC(=O)O)[C@H]1CC[C@H]2[C@@H]3CC[C@@H]4C[C@H](O)CC[C@]4(C)[C@H]3C[C@H](O)[C@]12C [DEOXYCHOLIC ACID] ... > 80 µM

Then there is this compound:
Tell me the measured IC50 of C[C@H](CCC(=O)O)[C@H]1CC[C@H]2[C@@H]3CCC(C(C)(C)O)[C@](C)(CCC(=O)O)[C@H]3CC[C@]12C (stereo partly drawn) , please.
> 80 µM
